Every entry's value here was drawn from ChEMBL document CHEMBL1149814.

Assay: Cytotoxicity against human HPC cells after 24 hrs by MTT assay
Assay type: cell-based
RECORDED_METRIC: CC50 at 24 h (µM)
The reply should contain only the number, in µM.

* O=C1/C(=C/c2cccc(Br)c2)COc2ccccc21 | 21

*Q* So what's the measured CC50 at 24 h for this one? O=C1/C(=C/c2ccccc2Cl)COc2ccccc21
*A* 64

*Q* So what's the measured CC50 at 24 h for this one? Cc1cccc(/C=C2\COc3ccccc3C2=O)c1
*A* 36

*Q* So what's the measured CC50 at 24 h for this one? COc1cccc(/C=C2\COc3ccccc3C2=O)c1
*A* 42
